Some molecules, each annotated with its measured pIC50.
target: p110δ/p85α (Homo sapiens (Human), UniProt O00329); experiment: PI 3-Kinase (human) HTRF assay, p110δ/p85α; assay type: biochemical; conditions: read-out: PI3K δ IC50
Sequence (O00329 whole entry): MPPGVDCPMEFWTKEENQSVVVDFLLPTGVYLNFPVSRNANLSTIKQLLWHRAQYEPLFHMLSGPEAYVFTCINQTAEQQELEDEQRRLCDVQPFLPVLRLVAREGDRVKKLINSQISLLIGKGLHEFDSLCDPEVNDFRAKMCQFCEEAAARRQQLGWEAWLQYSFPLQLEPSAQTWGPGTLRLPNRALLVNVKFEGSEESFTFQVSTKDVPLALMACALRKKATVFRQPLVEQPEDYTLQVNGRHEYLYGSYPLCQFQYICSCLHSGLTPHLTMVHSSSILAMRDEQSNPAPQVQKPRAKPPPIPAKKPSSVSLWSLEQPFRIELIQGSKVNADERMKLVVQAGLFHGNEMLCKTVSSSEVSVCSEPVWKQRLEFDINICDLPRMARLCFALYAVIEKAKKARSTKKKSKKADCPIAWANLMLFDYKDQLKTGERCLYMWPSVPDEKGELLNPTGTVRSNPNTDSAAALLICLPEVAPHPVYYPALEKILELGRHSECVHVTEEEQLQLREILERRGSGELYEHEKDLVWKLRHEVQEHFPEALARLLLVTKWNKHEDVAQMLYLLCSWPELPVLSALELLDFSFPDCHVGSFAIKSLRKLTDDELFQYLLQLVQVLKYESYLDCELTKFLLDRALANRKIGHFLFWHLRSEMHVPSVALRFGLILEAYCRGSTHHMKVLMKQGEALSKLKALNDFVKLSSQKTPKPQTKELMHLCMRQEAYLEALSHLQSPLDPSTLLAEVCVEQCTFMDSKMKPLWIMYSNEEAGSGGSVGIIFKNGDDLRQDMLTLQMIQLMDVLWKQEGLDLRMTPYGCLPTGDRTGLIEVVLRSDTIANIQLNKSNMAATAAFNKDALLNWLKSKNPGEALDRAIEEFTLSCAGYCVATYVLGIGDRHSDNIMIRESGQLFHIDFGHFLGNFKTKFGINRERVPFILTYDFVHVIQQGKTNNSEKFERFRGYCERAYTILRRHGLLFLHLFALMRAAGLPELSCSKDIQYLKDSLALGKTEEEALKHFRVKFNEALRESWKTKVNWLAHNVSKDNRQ
Sequence (P27986 whole entry partner): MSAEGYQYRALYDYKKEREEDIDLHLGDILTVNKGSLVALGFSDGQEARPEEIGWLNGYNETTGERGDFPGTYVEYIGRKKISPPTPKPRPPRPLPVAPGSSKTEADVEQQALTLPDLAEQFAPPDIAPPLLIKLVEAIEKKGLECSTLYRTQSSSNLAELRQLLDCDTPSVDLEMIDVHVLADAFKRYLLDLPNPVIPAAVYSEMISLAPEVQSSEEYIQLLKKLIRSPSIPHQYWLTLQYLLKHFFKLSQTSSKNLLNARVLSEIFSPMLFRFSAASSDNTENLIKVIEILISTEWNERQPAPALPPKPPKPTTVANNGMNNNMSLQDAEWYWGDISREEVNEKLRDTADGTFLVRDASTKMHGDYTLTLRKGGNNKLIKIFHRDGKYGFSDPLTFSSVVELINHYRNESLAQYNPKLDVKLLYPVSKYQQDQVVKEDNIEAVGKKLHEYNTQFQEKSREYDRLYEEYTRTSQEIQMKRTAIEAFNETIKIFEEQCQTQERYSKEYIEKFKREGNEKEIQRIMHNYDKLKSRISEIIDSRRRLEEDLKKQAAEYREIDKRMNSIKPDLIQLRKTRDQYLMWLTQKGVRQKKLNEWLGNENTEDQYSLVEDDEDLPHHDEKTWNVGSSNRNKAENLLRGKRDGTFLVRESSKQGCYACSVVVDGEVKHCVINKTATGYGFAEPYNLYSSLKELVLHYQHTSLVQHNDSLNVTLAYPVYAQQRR
pIC50: −log10 of the molar value.

Some solved entries appear below for comparison.
| Molecule | pIC50 |
| --- | --- |
| Nc1nc2cc(-c3ccc4ncc(-c5cccnc5)n4n3)ccc2o1 | > 7.00 |
| CC(N)C(=O)N1CCN(c2cnc3ccc(-c4ccc5oc(N)nc5c4)cc3n2)CC1 (centres unmarked) | > 6.00 |
| Nc1nc2cc(-c3ccc4ncc(-c5cn[nH]c5)n4n3)ccc2o1 | > 6.00 |
| Nc1nc2cc(-c3ccc4ncc(OC5CCOCC5)nc4c3)ccc2o1 | > 5.00 |
| CN1CC(C(=O)N2CCN(c3cnc4ccc(-c5ccc6oc(N)nc6c5)cc4n3)CC2)C1 | > 6.00 |

Now for another entry.
Record request: pIC50 value, item Nc1nc2cc(-c3ccc4ncc(-c5ccnc(N6CCOCC6)c5)n4c3)ccc2o1
> 7.00
